Origin of values: patent US20130210709A1

Provide the reported Max (% of), CHTX, SUP B-15, 1.0 uM of each item.
- tested_system: CXCR4 receptor (human, UniProt P61073 1-352)
- Sequence (P61073 whole entry): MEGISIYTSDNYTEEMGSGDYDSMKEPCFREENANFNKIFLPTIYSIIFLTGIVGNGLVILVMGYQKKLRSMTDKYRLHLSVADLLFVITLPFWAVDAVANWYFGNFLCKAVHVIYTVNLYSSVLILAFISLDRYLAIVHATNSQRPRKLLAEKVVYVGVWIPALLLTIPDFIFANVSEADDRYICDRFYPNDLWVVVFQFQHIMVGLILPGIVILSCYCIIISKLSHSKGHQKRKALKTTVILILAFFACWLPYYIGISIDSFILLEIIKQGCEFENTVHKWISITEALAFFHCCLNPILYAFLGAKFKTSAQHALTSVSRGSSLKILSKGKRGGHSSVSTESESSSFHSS
- test_summary: cell-based or functional assay
* marks the point of attachment. Palmitoyl = CCCCCCCCCCCCCCCC(=O)*
Answers are plain numbers, in %.

binder: Palmitoyl-MGYQKKLRSMTDKYRL-NH2 (SMILES CCCCCCCCCCCCCCCC(=O)N[C@@H](CCSC)C(=O)NCC(=O)N[C@@H](Cc1ccc(O)cc1)C(=O)N[C@@H](CCC(N)=O)C(=O)N[C@@H](CCCCN)C(=O)N[C@@H](CCCCN)C(=O)N[C@@H](CC(C)C)C(=O)N[C@@H](CCCNC(=N)N)C(=O)N[C@@H](CO)C(=O)N[C@@H](CCSC)C(=O)N[C@H](C(=O)N[C@@H](CC(=O)O)C(=O)N[C@@H](CCCCN)C(=O)N[C@@H](Cc1ccc(O)cc1)C(=O)N[C@@H](CCCNC(=N)N)C(=O)N[C@@H](CC(C)C)C(N)=O)[C@@H](C)O) [Compound No. 38 (Pal-MGYQKKLRSMTDKYRL-amide)]
Max (% of), CHTX, SUP B-15, 1.0 uM (%): 49.6

API: the following record is the query input.
## Input Entry Palmitoyl-KKLRSMTDKY-NH2 (SMILES CCCCCCCCCCCCCCCC(=O)N[C@@H](CCCCN)C(=O)N[C@@H](CCCCN)C(=O)N[C@@H](CC(C)C)C(=O)N[C@@H](CCCNC(=N)N)C(=O)N[C@@H](CO)C(=O)N[C@@H](CCSC)C(=O)N[C@H](C(=O)N[C@@H](CC(=O)O)C(=O)N[C@@H](CCCCN)C(=O)N[C@@H](Cc1ccc(O)cc1)C(N)=O)[C@@H](C)O) [CXCR4 i1 loop compound 46] : reported Max (% of), CHTX, SUP B-15, 1.0 uM = ?
## Output 82.9
